Overview of recorded IC50 for various molecules
Measurement Target: UniProt P42336
Sequence (P42336 whole entry, species assumed): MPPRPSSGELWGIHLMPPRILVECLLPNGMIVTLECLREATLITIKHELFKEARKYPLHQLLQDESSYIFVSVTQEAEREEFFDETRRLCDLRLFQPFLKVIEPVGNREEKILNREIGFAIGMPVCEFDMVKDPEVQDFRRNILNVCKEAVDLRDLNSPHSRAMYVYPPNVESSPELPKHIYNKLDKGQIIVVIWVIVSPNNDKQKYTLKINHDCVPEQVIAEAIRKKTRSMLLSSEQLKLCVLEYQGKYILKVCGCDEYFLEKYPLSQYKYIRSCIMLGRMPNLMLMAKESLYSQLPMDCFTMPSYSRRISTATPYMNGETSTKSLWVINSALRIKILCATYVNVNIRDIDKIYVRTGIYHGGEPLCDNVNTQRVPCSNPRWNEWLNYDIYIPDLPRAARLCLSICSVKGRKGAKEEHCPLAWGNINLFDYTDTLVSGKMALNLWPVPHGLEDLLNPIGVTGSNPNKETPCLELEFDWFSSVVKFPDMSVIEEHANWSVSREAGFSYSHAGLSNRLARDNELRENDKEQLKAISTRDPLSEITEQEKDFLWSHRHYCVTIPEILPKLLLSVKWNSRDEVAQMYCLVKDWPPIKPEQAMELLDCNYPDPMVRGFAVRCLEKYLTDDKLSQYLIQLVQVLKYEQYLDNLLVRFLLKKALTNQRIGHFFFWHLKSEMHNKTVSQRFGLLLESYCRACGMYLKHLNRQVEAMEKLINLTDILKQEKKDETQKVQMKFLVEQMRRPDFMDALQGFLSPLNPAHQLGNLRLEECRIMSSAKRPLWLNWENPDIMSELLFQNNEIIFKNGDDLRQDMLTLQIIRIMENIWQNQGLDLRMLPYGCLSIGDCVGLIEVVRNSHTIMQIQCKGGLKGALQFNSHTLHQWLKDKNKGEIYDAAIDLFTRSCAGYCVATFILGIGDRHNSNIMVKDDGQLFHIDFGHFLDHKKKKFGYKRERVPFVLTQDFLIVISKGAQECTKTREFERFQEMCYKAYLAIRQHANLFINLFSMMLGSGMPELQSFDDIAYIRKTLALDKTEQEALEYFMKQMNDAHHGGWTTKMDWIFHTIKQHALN
Sequence (P27986 whole entry partner, species assumed): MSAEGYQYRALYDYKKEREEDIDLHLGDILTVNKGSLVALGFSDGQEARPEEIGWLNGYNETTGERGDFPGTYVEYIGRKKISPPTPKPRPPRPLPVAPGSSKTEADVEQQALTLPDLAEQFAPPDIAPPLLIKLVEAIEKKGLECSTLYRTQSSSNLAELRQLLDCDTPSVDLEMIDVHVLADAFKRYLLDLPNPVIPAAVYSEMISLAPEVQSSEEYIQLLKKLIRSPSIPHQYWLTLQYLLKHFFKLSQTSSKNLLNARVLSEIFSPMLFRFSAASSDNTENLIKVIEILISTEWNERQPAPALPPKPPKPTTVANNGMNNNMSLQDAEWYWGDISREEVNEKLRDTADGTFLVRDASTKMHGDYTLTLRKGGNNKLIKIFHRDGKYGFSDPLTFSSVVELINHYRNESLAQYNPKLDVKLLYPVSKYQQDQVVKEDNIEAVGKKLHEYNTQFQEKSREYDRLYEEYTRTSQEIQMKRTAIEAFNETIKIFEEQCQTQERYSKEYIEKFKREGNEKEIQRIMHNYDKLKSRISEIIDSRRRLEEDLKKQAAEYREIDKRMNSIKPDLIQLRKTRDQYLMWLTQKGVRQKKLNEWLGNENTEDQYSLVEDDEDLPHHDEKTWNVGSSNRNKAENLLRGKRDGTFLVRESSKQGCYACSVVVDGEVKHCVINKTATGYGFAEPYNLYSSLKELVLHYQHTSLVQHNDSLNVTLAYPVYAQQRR
Experiment Summary: PI3K-alpha fluorescence polarization assay
Type: biochemical
Measurement Context: read-out: PI3Kα Avg. IC50
API: value field is a number in nM; no unit string.

Use the examples below as a reference point.
- Molecule: "COc1cc(/C=C/CN2CCN(C)CC2)c2[nH]cc(/C=C3\\Oc4cc(O)ccc4C3=O)c2c1 [Compound 545]"
  IC50 (nM): 40.5
- Molecule: "Cc1cccc2c1c(/C=C1\\Oc3cc(O)cc(O)c3C1=O)c(-c1ccccn1)n2C [Compound 477]"
  IC50 (nM): 1120
- Molecule: "Cn1cc(/C=C2\\Oc3cc(O)cc(O)c3C2=O)c2c(-c3cccc(F)c3)cccc21 [Example 365]"
  IC50 (nM): 437
- Molecule: "COc1ccc2c(c1)c(/C=C1\\Oc3cc(O)cc(O)c3C1=O)c(C)n2CCN1CCN(C)CC1 [Example 309]"
  IC50 (nM): 2

**Q:** UniProt P42336 / IC50 / COc1ccc2c(c1)c(/C=C1\Oc3cc(O)ccc3C1=O)c(C(=O)N(C)C)n2CCN1CCN(C)CC1 [Example 335] : value?
**A:** 9

**Q:** Recall the recorded IC50 for COc1ccc2[nH]c(-c3c(C)nn(C)c3C)c(/C=C3\Oc4ccc(NC(=O)Nc5ccc(C(=O)N(C)CCN6CCCC6)cc5)cc4C3=O)c2c1 [Compound 701] with UniProt P42336 and state it.
**A:** 0.3

**Q:** For the record CNC(=O)Nc1ccc2c(c1)C(=O)/C(=C/c1c(C(=O)NCCN(C)C)[nH]c3ccc(OC)cc13)O2 [Compound 605] , what value of IC50 is listed for UniProt P42336?
**A:** 19

**Q:** Report IC50 for CNC(=O)Nc1ccc2c(c1)C(=O)/C(=C/c1c(-c3c(C)nn(C)c3C)[nH]c3ccc(OC)cc13)O2 [Compound 627] tested on UniProt P42336.
**A:** 0.6

**Q:** Missing value: IC50, UniProt P42336, entry Cn1cc(/C=C2/Oc3cc(O)cc(O)c3C2=O)c2c(-c3ccccc3)cccc21 [Compound 557] . Fill in?
**A:** 1200

**Q:** Field: IC50 (UniProt P42336). Entry: CC(C)Cn1c(-c2ccccc2)c(C=C2Oc3cc(O)cc(O)c3C2=O)c2ccccc21 [Example 150]
**A:** 2230

**Q:** Notebook entry, UniProt P42336 assay: IC50 of COc1cc(/C=C/CN2CCN(C)CC2)c2c(c1)c(/C=C1\Oc3cc(O)ccc3C1=O)cn2C [Compound 582] = ?
**A:** 183

**Q:** Form entry - test system: UniProt P42336; read-out: IC50; molecule: Cn1cc(C=C2Oc3cc(O)cc(O)c3C2=O)c2cc([N+](=O)[O-])ccc21 [Example 228]
**A:** 3570

**Q:** What IC50 appears in the records for this molecule with UniProt P42336? O=C1C(=Cc2c[nH]c3cc4c(cc23)OCO4)Oc2cc(O)cc(O)c21 [Example 168]
**A:** 6540

**Q:** Provide value of IC50 for this record tested with UniProt P42336: CN(C)CCCn1c(-c2ccccc2)c(C=C2Oc3cc(O)cc(O)c3C2=O)c2ccccc21 [Example 156]
**A:** 1290

**Q:** IC50 of COc1ccc2c(c1)c(/C=C1\Oc3cc(O)cc(O)c3C1=O)c(C(=O)N(C)C)n2CCCN(C)C [Example 343] on UniProt P42336?
**A:** 12

**Q:** Kindly state the measured IC50 obtained for CN(C)c1ccc(-c2c(C=C3Oc4cc(O)cc(O)c4C3=O)c3ccccc3n2C)cc1 [Example 198] with UniProt P42336.
**A:** 4870

**Q:** // fetch UniProt P42336 IC50 for CNC(=O)Nc1ccc2c(c1)C(=O)/C(=C/c1c(-c3c(C)nn(CCOC)c3C)[nH]c3ccc(OC)cc13)O2 [Compound 709]
**A:** 47

**Q:** Could you share what IC50 was measured for CNC(=O)Nc1ccc2c(c1)C(=O)/C(=C/c1c(-c3c(C)n[nH]c3C)[nH]c3ccc(OC)cc13)O2 [Compound 625] , tested on UniProt P42336?
**A:** 0.2

**Q:** Please state recorded IC50 (tested on UniProt P42336) of Cc1cccc2c(/C=C3\Oc4cc(O)cc(O)c4C3=O)c[nH]c12 [Example 49]
**A:** 2430

**Q:** For the record O=C1/C(=C/c2c(-c3ccc4ccccc4c3)[nH]c3ccccc23)Oc2ccccc21 [Example 18] , what value of IC50 is listed for UniProt P42336?
**A:** 2550

**Q:** Form: Entry = CNC(=O)Nc1ccc2c(c1)C(=O)/C(=C/c1cn(CCN3CCN(C)CC3)c3ccc(OC)cc13)O2 [Compound 553] | System = UniProt P42336 | IC50 = ____
**A:** 31

* * *

Measurement Target: human TOR (Homo sapiens, UniProt P42345)
Construct: FLAG
Experiment Summary: mTOR enzyme assay (DELFIA, His6-S6K substrate)
Format: biochemical
Measurement Context: read-out: mTOR Kinase Avg. IC50
Each entry below carries its recorded pIC50.
Hey, just a heads up that pIC50 is the negative log base 10 of the concentration in molar.

- Compound Structure: "COc1ccc2c(c1)c(/C=C1\\Oc3ccc(NC(=O)Nc4cccnc4)cc3C1=O)c(C1CCCC1)n2CCN1CCN(C)CC1"
  pIC50: 8.10
- Compound Structure: "COc1ccc2c(c(C=C3Oc4cc(O)cc(O)c4C3=O)cn2CCCC#N)c1C"
  pIC50: 5.23
- Compound Structure: "COc1ccc2c(c1)c(C=C1Oc3cc(O)cc(O)c3C1=O)c(C)n2CCCCN1CCN(CCN2CCOCC2)CC1"
  pIC50: 7.26

# evaluate next
**Q:** API: value(readout=pIC50, system=human TOR (Homo sapiens, UniProt P42345)) for record O=C1C(=Cc2c[nH]c3ccccc23)Oc2cccc(O)c21
**A:** 5.01

* * *

Measurement Target: PI3K-gamma (Homo sapiens, UniProt P48736)
Sequence (P48736 whole entry, species assumed): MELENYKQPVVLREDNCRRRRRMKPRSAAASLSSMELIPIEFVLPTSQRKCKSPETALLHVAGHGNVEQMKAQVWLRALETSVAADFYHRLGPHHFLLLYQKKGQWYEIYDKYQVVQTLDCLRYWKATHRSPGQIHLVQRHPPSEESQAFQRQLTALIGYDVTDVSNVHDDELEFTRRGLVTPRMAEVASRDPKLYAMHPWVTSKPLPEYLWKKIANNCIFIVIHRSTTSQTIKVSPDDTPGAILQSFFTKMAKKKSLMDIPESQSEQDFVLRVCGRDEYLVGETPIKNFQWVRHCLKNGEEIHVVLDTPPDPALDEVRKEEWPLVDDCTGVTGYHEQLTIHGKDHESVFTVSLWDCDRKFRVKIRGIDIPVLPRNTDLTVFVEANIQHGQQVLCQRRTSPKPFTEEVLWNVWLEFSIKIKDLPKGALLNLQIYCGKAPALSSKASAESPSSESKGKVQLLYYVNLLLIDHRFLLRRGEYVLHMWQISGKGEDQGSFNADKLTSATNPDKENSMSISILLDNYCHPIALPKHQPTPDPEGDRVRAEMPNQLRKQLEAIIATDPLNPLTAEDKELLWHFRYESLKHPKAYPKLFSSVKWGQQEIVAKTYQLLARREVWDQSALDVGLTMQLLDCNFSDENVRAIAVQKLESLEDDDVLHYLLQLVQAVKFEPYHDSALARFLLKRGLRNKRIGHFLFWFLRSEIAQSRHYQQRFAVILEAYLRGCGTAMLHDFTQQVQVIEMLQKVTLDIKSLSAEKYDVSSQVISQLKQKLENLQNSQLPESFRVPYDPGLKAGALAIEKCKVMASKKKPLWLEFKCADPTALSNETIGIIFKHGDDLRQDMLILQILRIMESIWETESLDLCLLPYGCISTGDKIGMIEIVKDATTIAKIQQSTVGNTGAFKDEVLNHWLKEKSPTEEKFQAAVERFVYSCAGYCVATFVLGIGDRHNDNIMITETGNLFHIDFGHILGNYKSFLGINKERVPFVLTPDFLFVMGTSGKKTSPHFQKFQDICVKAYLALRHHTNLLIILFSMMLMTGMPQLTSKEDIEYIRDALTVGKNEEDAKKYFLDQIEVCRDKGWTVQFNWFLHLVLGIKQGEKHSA
Experiment Summary: PI3K-gamma fluorescence polarization assay
Assay type: biochemical
Measurement Context: PI3Kγ Avg. IC50
Metric: IC50 (nM)
Write the value in nM as a bare number.

**Q:** Name the recorded IC50 for COCCn1c(-c2ccccc2)c(C=C2Oc3cc(O)cc(O)c3C2=O)c2ccccc21 .
**A:** 4220

**Q:** Bench note: what IC50 did CCn1c(C)c(/C=C2\Oc3ccc(NC(=O)Nc4ccc(N(C)CCCCN(C)C)cc4)cc3C2=O)c2cc(OC)ccc21 show?
**A:** 40

**Q:** State the recorded IC50 for this entry: COc1ccc2c(c1)c(/C=C1\Oc3cc(O)cc(O)c3C1=O)cn2CCN1CCC(O)C1 (centres unmarked)
**A:** 150

**Q:** Item under review: CNC(=O)Nc1ccc2c(c1)C(=O)/C(=C/c1c(-c3nc(C(C)C)no3)n(CCN3CCN(C)CC3)c3ccc(OC)cc13)O2 . Reported IC50?
**A:** 355

**Q:** Given the entry COc1ccc2c(c1)c(/C=C1\Oc3cc(O)cc(O)c3C1=O)cn2CCn1ccnc1 , report its measured IC50.
**A:** 81.5

**Q:** Fill in the blank: the reported IC50 of COc1ccc2c(c1)c(/C=C1\Oc3ccc(O)cc3C1=O)cn2CCCC#N is ____.
**A:** 4100

* * *

Measurement Target: PI3K-gamma (Homo sapiens, UniProt P48736)
Experiment Summary: PI3K-gamma fluorescence polarization assay
Type: biochemical
Measurement Context: PI3Kγ Avg. IC50
Each entry below carries its recorded IC50.
Write it as a number; the unit µM goes unstated.

Below: 3 compounds and their reported IC50.
- Compound Structure: "CNC(=O)Nc1ccc2c(c1)C(=O)/C(=C/c1c(C3CCCCC3)n(CCN3CCN(C)CC3)c3ccc(OC)cc13)O2"
  IC50 (µM): 0.389
- Compound Structure: "CCn1c(C)c(/C=C2\\Oc3ccc(NC(=O)Nc4ccc(C(=O)N(C)CCN(C)C)cc4)cc3C2=O)c2cc(OC)ccc21"
  IC50 (µM): 0.00342
- Compound Structure: "CCOC(=O)c1ccc(-c2cccc3c2c(/C=C2\\Oc4cc(O)cc(O)c4C2=O)cn3C)cc1"
  IC50 (µM): 4.68

**Q:** Looking for the measured IC50 of COc1ccc2[nH]c(-c3cccnc3)c(C=C3Oc4cc(O)cc(O)c4C3=O)c2c1 , can you help?
**A:** 0.0095

**Q:** Form field: reported IC50 of O=C1C(=Cc2c[nH]c3ccc(O)cc23)Oc2cc(O)cc(O)c21
**A:** 3.85

**Q:** Please give the measured IC50 for this compound: CCn1c(C)c(/C=C2\Oc3ccc(NC(=O)Nc4ccc(NC(=O)CCN(C)C)cc4)cc3C2=O)c2cc(OC)ccc21
**A:** 0.00325

**Q:** Entry COc1ccc2c(c1)c(C=C1Oc3cccc(O)c3C1=O)c(C)n2CCCCN1CCN(CCO)CC1 : reported IC50 = ?
**A:** 2.77

**Q:** Name the recorded IC50 for COc1ccc2c(c1)c(/C=C1\Oc3ccc(NC(=O)NCCCN(C)C)cc3C1=O)cn2CCN1CCN(C)CC1 .
**A:** 6.5

**Q:** // returns reported IC50 for input COc1ccc2c(c1)O/C(=C\c1c[nH]c3ccc(OC)cc13)C2=O
**A:** 2.45

**Q:** Request the reported IC50 associated with Cn1cc(/C=C2\Oc3cc(O)cc(O)c3C2=O)c2c(N3CCOCC3)cccc21
**A:** 4.77

**Q:** # lookup: IC50 of O=C1/C(=C/c2c(-c3ccccc3)[nH]c3ccccc23)Oc2c(O)cccc21
**A:** 0.302
